These entries and their values trace back to patent US9765092B2.

biological target: human TPH1 (Homo sapiens (Human), UniProt P17752); assay: Biochemical in vitro assay using fluorescence readout (TPH1 inhibition); conditions: human TPH1, fluorescence readout
Sequence (P17752 whole entry): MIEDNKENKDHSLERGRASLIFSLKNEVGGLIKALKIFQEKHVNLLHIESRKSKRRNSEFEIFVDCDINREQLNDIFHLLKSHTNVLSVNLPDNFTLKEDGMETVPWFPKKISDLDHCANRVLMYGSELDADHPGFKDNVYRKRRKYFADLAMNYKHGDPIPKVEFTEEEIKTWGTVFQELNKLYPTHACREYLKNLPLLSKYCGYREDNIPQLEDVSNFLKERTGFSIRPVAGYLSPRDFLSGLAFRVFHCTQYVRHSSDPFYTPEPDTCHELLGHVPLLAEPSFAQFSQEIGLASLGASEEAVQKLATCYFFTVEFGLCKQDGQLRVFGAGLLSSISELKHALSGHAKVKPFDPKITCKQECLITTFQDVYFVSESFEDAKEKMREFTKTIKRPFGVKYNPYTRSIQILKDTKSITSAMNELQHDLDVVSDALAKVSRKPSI
pIC50: −log10 of the molar value.
Answer NO if pIC50 is under 8, and YES if it is 8 or more.

pIC50 >= 8 for `CCc1nc(NS(C)(=O)=O)ncc1OCC(=O)N1CCc2nc3sc(C)nn3c2[C@@H]1c1ncc(C)cc1F` ?
NO

Reported pIC50 reaches at least 8 for Cc1noc(C)c1C1c2c(nc3sccn23)CCN1C(=O)COc1ccc(C(F)(F)F)cc1Cl (stereo not shown) ?
NO

###

Listing: IC50 of selected molecules
target: human TPH1 (Homo sapiens (Human)); test: Biochemical in vitro assay using fluorescence readout (TPH1 inhibition); settings: human TPH1, fluorescence readout
Use nM as the unit, but write only the number.

Which measured IC50 value corresponds to O=C(COc1ccc(CN2CCOCC2)nc1Cl)N1CCc2nc3sccn3c2C1c1cccnc1F (stereo not shown) [Example 6.2.7] ?
235

Dear colleague, I am looking for the recorded IC50 of the following molecule: CCc1nc(Cl)ncc1OCC(=O)N1CCc2nc3sc(C)nn3c2C1c1ccc(C)c(F)c1F (stereo not shown) [Example 1.61.4]
49

Look at this molecule and give its reported IC50. O=C(COc1ccc(Cl)cc1Cl)N1CCc2nc3sccn3c2C1c1cnn(-c2ccccc2)c1 (stereo not shown) [Example 6.13.2]
50

// lookup IC50 for COC(=O)c1cnc(C2c3c(nc4sc(C)nn34)CCN2C(=O)COc2ccc(N3CC(F)(F)C3)nc2Cl)s1 (stereo not shown) [Example 1.28.4]
17
